Origin of the recorded values: PubChem BioAssay (NCI)

- System: HT29 colon
- Assay notes: NCI tumour cell line growth inhibition, 48 h
Quantity measured: GI50

The cases that follow already have their GI50 on record.
Smiles structure | Quantity measured | Endpoint result
COc1ccc(-c2cn(-c3cccc(C(=O)/C=C/c4ccc(O)c(OC)c4)c3)c(=O)[nH]2)cc1 | GI50 | 2990 nM
COc1ccc(-c2nn(-c3cccc(Cl)c3)cc2-c2c(C#N)c(=O)n3[nH]c(-c4ccc(C)cc4)nc3c2C#N)cc1 | GI50 | 1490 nM
C[C@@H](NC(=O)[C@@H](CC(=O)N1CCC(N2CCCCC2)CC1)N1C(=O)[C@@H](N2C(=O)OC[C@@H]2c2ccccc2)[C@H]1/C=C/c1cccc(Cl)c1)c1ccccc1 | GI50 | 2780 nM

So for `Cc1cc([N+](=O)[O-])ccc1NS(=O)(=O)c1cc(Cl)ccc1Cl` , the logged GI50 turned out to be 3810 nM

So for `Cc1cc(Nc2ccc(F)cc2)nc(N2CCN(c3ccnc4cc(Cl)ccc34)CC2)n1` , the logged GI50 turned out to be 2960 nM

---

This listing pairs molecules with measured TGI.
- System: NCI-H23 lung
- Assay notes: NCI tumour cell line growth inhibition, 48 h

The cases that follow already have their TGI on record.
Molecule | Endpoint result
CCOC(=O)C1C[C@H]2CO[C@H](c3ccccc3)N2C1=O (stereo not given in full) | > 100 µM
O=[N+]([O-])c1ccc2nc(/C=C(\O)c3ccccc3)c(/C=C(\O)c3ccccc3)nc2c1 | > 60.4 µM
CCOC(=O)Cn1nnc2cc(Nc3nc4ccccc4nc3C(=O)OCC)ccc21 | > 100 µM
C[C@@H](NC(=O)[C@@H](CC(=O)N1CCC(N2CCCCC2)CC1)N1C(=O)[C@@H](N2C(=O)OC[C@@H]2c2ccccc2)[C@H]1/C=C/c1cccc(Cl)c1)c1ccccc1 | 15.5 µM
O=C(O)C1C(=O)Oc2c(cccc2[N+](=O)[O-])C1O (stereo not given) | > 100 µM

So for `CN(C)CCNC(=O)c1cccc2[nH]c(-c3ccncc3)nc12` , the logged TGI turned out to be 32.1 µM

So for `c1ccc(CCN2CCN=C2Cc2ccccc2)cc1` , the logged TGI turned out to be > 100 µM

So for `c1cncc(-c2nc3ccccc3s2)c1` , the logged TGI turned out to be > 100 µM

So for `O=S(=O)(O)c1cc(Nc2ccnc3ccccc23)c2c(S(=O)(=O)O)cc(S(=O)(=O)O)cc2c1` , the logged TGI turned out to be > 100 µM

So for `C/C(CC(=O)Nc1ccc(Cl)cc1)=N\NC(=O)C[n+]1ccccc1` , the logged TGI turned out to be > 100 µM

---

This listing pairs compounds with measured TGI.
- Test system: HOP-92 NSCLC
- Assay notes: NCI tumour cell line growth inhibition, 48 h
Field: numeric (µM). Do not append units.

Smiles structure | TGI (µM)
COc1cc(/C=c2/c3ccccc3n3c2cc(-c2ccccc2)[n+]3C)cc(OC)c1OC | 12.3

So for `c1ccc(CCN2CCN=C2Cc2ccccc2)cc1` , the logged TGI turned out to be 93.8

---

- System: TK-10 renal
- Assay notes: NCI tumour cell line growth inhibition, 48 h
Quantity measured: TGI

Compound | TGI
O=c1cc(-c2ccccc2)nc(/C=C(\O)c2ccncc2)n1-c1ccccc1 | > 100 µM
COc1ccc2oc(=Nc3ccc(F)cc3)c(C(N)=O)cc2c1 | 58 µM
COc1ccc2c(c1)CC1(O)COc3cc(OC)ccc3C1O2 (stereo unspecified) | > 100 µM
COc1ccc(-c2nn(-c3cccc(Cl)c3)cc2-c2c(C#N)c(=O)n3[nH]c(-c4ccc(C)cc4)nc3c2C#N)cc1 | 7.35 µM
Cc1c(O)c(=O)ccn1CCc1c[nH]c2ccccc12 | > 100 µM

So for `O=[P+](O)c1cc2ccccc2c2ccccc12` , the logged TGI turned out to be > 100 µM
